Items are presented alongside their recorded EC50.
Biological target: LXRβ (Homo sapiens, UniProt P55055)
Construct: Co-transfection expression plasmids, comprising full-length LXRα (pCMX-h LXRα[…] or LXRβ (pCMX-hLXRβ))
Assay: Co-transfection assay (LXRE luciferase reporter), LXRβ
Settings: CV-1 cells transfected with pCMX-hLXRβ and LXREx1-Tk-Luciferase; 20 hours incubation
Answer format: number, then unit.

// below: answered compounds
Cc1nc(-c2cc(-c3cccc(C(=O)N(C)C)c3)ccc2-n2cc(C(F)(F)F)nc2C)c(-c2ccc(OC(F)F)c(F)c2)o1 :: 729 nM
Cc1nc(C(F)(F)F)cn1-c1ccc(-c2cccc(S(C)(=O)=O)c2)cc1-c1nc(C2CC2)cn1-c1ccc2c(c1)OC(F)(F)O2 :: 341 nM
Cc1nc(C(F)(F)F)cn1-c1ccc(-c2cccc(S(C)(=O)=O)c2)cc1-c1nc(CCO)oc1-c1ccc(OC(F)(F)F)cc1 :: 514 nM
Cc1nc(-c2cc(-c3cccc(S(C)(=O)=O)c3)ccc2-n2cc(C(F)(F)F)nc2C)c(-c2ccc(OC(F)F)cc2Cl)o1 :: 34 nM

Recorded result, `Cc1nc(C(F)(F)F)cn1-c1ccc(-c2cc(F)c(CO)c(S(C)(=O)=O)c2)cc1-n1nncc1-c1ccc(Cl)cc1` , EC50: 217 nM

Recorded result, `Cc1nc(-c2cc(-c3cccc(S(C)(=O)=O)c3)ccc2-n2cc(C(F)(F)F)nc2C)c(-c2ccc(F)c(C#N)c2)o1` , EC50: 349 nM

====

Items are presented alongside their recorded Emax.
Target: LXRβ (Homo sapiens)
Construct: Co-transfection expression plasmids, comprising full-length LXRα (pCMX-h LXRα[…] or LXRβ (pCMX-hLXRβ)); expressed in transfected cells; host or cells: CV-1 African Green Monkey Kidney Cells
Sequence (P55055 1-460): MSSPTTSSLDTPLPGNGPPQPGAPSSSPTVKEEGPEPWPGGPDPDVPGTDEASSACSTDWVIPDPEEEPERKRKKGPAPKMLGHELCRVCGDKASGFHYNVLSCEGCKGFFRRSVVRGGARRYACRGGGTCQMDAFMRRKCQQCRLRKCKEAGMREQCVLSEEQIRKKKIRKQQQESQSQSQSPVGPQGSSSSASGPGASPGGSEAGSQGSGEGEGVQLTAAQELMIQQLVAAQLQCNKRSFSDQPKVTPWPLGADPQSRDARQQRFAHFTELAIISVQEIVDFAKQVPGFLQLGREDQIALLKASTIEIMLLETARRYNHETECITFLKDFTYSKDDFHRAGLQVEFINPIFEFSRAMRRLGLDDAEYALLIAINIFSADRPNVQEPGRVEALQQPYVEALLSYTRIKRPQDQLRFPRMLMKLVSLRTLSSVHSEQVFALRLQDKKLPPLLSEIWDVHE
Sequence (P19793 1-462 partner): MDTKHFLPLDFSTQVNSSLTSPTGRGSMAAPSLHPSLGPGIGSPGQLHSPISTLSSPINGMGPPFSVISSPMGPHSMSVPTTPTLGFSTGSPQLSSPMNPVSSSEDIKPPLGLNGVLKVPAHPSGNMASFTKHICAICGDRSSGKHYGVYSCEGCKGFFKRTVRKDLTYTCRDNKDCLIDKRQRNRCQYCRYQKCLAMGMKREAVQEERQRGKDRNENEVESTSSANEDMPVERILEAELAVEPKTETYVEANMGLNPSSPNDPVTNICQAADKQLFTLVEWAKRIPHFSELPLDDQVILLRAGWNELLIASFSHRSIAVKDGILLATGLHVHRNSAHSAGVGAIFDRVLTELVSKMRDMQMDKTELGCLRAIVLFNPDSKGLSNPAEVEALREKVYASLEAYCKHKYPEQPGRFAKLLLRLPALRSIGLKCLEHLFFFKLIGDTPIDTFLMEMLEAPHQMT
Assay: Co-transfection assay (LXRE luciferase reporter), LXRβ
Type: cell-based
Conditions: LXRβ co-transfection; relative to high control 1-(2,4-difluorobenzyl)-2-oxo-6-(4-phenoxyphenyl)-4-(trifluoromethyl)-1,2-dihydropyridine-3-carbonitrile; read-out: % Efficacy
A number alone suffices; assume %.

// below: answered molecules
Cc1nc(C(F)(F)F)cn1-c1ccc(-c2cccc(S(C)(=O)=O)c2)cc1-n1nncc1-c1ccc(CF)cc1 :: 89
Cc1nc(-c2cc(-c3ccc(C)c(S(C)(=O)=O)c3)ccc2-n2cc(C(F)(F)F)nc2C)c(-c2cc(F)c(OC(F)F)c(F)c2)o1 :: 56
COc1ccc(-c2oc(C)nc2-c2cc(-c3cccc(S(C)(=O)=O)c3)ccc2-n2cc(C(F)(F)F)nc2C)cn1 :: 90
Cc1nc(C(F)F)cn1-c1ccc(-c2cccc(S(=O)(=O)N(C)C)c2)cc1-n1nncc1C(C)c1ccc(Cl)cc1 (stereo not drawn) :: 61
Cc1nc(C(F)(F)F)cn1-c1ccc(-c2cccc(S(C)(=O)=O)c2)cc1-n1nncc1-c1ccc(C(F)F)cc1 :: 91
CCC(F)(F)c1cn(-c2ccc(-c3cc(F)c(CO)c(S(C)(=O)=O)c3)cc2-c2ocnc2-c2ccc(OC(F)(F)F)cc2)c(C)n1 :: 58

Recorded result, `Cc1cc(-c2cc(-c3cc(F)c(CO)c(S(C)(=O)=O)c3)ccc2-n2cc(C(F)(F)F)nc2C)n(-c2ccc3c(c2)OC(F)(F)O3)n1` , Emax: 77

Recorded result, `Cc1nc(-c2cc(-c3cccc(S(C)(=O)=O)c3)ccc2-n2cc(C(F)(F)F)nc2C)c(-c2ccc(OC(F)F)c(OC(F)F)c2)o1` , Emax: 53

Recorded result, Cc1nc(C(F)F)cn1-c1ccc(-c2cccc(S(C)(=O)=O)c2)cc1-n1nncc1C(C)c1ccc(Cl)cc1 (stereo not drawn) , Emax: 71
